assay info: in vitro
assay context: human, hela cells, % viability
reported metric: viability at 28.5 h, 10 µM (%)
Enter your answer as a number in %; do not include the unit.

Below are worked cases with known answers.
molecule: CC1(C)Cc2c(ccc3ccccc23)C(NCC(=O)O)=N1 [CBK262559]
reported metric: viability at 28.5 h, 10 µM
numeric result: 97.6

molecule: COc1ncc(-c2cncc(Nc3ccccc3)n2)c(OC)n1 [CBK065282]
reported metric: viability at 28.5 h, 10 µM
numeric result: 100

molecule: CC(=O)c1ccc(-c2cc(C(=O)Nc3ccc4c(c3)OCCO4)cnc2-c2ccc(Cl)cc2)s1 [CBK036627]
reported metric: viability at 28.5 h, 10 µM
numeric result: 105

molecule: O=C(C1CC1)N1CCCc2cc(C(O)CN3CCCCC3)ccc21 (stereo not drawn) [CBK282135]
reported metric: viability at 28.5 h, 10 µM
numeric result: 99.5

molecule: O=C(NCCN1CCOCC1)c1nnc(C(=O)Nc2cccc(Cl)c2)s1 [CBK294405]
reported metric: viability at 28.5 h, 10 µM
numeric result: 93.9

Turning to the following molecule.
Provide measured viability at 28.5 h, 10 µM value, entry: O=C(c1ccc(Br)o1)n1cc(C(F)(F)F)ccc1=O [CBK022391]
108

====

assay info: in vitro
assay context: human, hela cells, % viability
# viability at 28.5 h, 10 µM per record follows
Enter your answer as a number in %; do not include the unit.

compound: COc1ccc(F)c(CN(CC(C)(C)CN)C(=O)Nc2c(F)cccc2F)c1 [CBK002405C]
quantity unit: %
viability at 28.5 h, 10 µM: 109

compound: CN(C(=O)c1cc(-c2cccs2)[nH]n1)c1ccccc1
quantity unit: %
viability at 28.5 h, 10 µM: 86.1

Provide measured viability at 28.5 h, 10 µM value, entry: O=S(=O)(c1cccc(C(F)(F)F)c1)n1ccc2c(CN3CCC[C@@H]3CO)cccc21 [CBK116167T]
96.8

Provide measured viability at 28.5 h, 10 µM value, entry: O=CNC(Cc1ccc(O)c([N+](=O)[O-])c1)C(=O)O (stereo not drawn)
101

Provide measured viability at 28.5 h, 10 µM value, entry: "Nc1ccc(Sc2nccnc2N2CCCC2)cc1"
94.4

Provide measured viability at 28.5 h, 10 µM value, entry: CC(=O)N1CCN(C(=O)C(C)S(=O)(=O)c2ccccc2F)CC1 (stereo not drawn)
97.7

====

assay info: in vitro
assay context: human, hela cells, % viability
Values of viability at 28.5 h, 10 µM strictly less than 90% map to criterion met, and values of at least 90% map to criterion not met.

Solved cases (3 shown):
compound: COc1ccccc1CC(C)NC(=O)c1ccnn1C(C)C (stereo not drawn)
cat: criterion met

compound: O=C(c1ccncc1)N1C2CCC1CC(c1ccc(F)cc1)C2 (stereo not drawn)
cat: criterion not met

compound: Cc1nc2ccccc2c(=O)n1CCC(=O)N1CCc2sccc2C1c1ccco1 (stereo not drawn)
cat: criterion not met

Consider N#CC1=C(SCc2ccccc2)SC(c2ccc(O)c(O)c2)NC1=O (stereo not drawn) . Does its viability at 28.5 h, 10 µM lie strictly below 90%?
criterion not met

Consider "COCCn1c(SCc2cn3cc(Br)ccc3n2)nc(C)c1C" . Does its viability at 28.5 h, 10 µM lie strictly below 90%?
criterion met

Consider "COc1cc(Nc2cncc(-c3ccc(O)cc3)n2)c(Cl)cc1C(=O)NCCCN(C)C" . Does its viability at 28.5 h, 10 µM lie strictly below 90%?
criterion met

====

assay info: in vitro
assay context: human, hela cells, % viability
reported metric: viability at 28.5 h, 10 µM (%)
Enter your answer as a number in %; do not include the unit.

Below are worked cases with known answers.
molecule: Cc1cc(C)n(C(CC(=O)N2CCCCC2)C(=O)O)n1 (centres unmarked)
reported metric: viability at 28.5 h, 10 µM
quantity unit: %
numeric result: 85.6

molecule: COC(=O)c1sccc1NC(=O)/C=C/c1ccccc1
reported metric: viability at 28.5 h, 10 µM
quantity unit: %
numeric result: 115

molecule: CCN1CCN(C(=O)CN(C)S(=O)(=O)c2ccc(OC)c(C)c2)CC1
reported metric: viability at 28.5 h, 10 µM
quantity unit: %
numeric result: 110

molecule: Cn1nc(NC(=O)c2cnccn2)c2c(N3CCOCC3)cccc21
reported metric: viability at 28.5 h, 10 µM
quantity unit: %
numeric result: 100

molecule: O=c1c(I)coc2ccc(Cl)cc12
reported metric: viability at 28.5 h, 10 µM
quantity unit: %
numeric result: 93.9

Provide measured viability at 28.5 h, 10 µM value, entry: "COc1ccc(N2CCN(C(=S)c3ccc(OCC(N)=O)cc3)CC2)cc1"
100

Provide measured viability at 28.5 h, 10 µM value, entry: CCc1cc(C(=O)N2CCCC(c3cc4ccccc4cn3)C2)on1 (centres unmarked)
101

Provide measured viability at 28.5 h, 10 µM value, entry: Cc1cc(O)nc(C(C)N2CCN(Cc3noc(C(C)(C)C)n3)CC2)n1 (centres unmarked)
95.4

====

assay info: in vitro
assay context: human, hela cells, % viability
reported metric: viability at 28.5 h, 10 µM (%)
Enter your answer as a number in %; do not include the unit.

Below are worked cases with known answers.
molecule: Cc1cccc(CSc2nnc(C(C)NC(=O)c3ccccc3F)n2C)c1 (stereo not shown)
quantity unit: %
viability at 28.5 h, 10 µM: 91.6
//
molecule: Nc1ncc(-c2ccc(C(=O)N3CCOCC3)cc2)cc1C(=O)NCCc1ccc(O)cc1
quantity unit: %
viability at 28.5 h, 10 µM: 92.5
//
molecule: O=C1CCC(=O)N1CCOc1nccnc1OC1CCN(CCCn2c(=O)[nH]c3ccccc32)CC1
quantity unit: %
viability at 28.5 h, 10 µM: 90.2

Provide measured viability at 28.5 h, 10 µM value, entry: "O=C(N[C@H]1CCN2C(=O)[C@@H](Cc3c[nH]c4ccccc34)NC(=O)[C@H]12)c1cnccn1"
89.3

====

assay info: in vitro
assay context: human, hela cells, % viability
reported metric: viability at 28.5 h, 10 µM (%)
Enter your answer as a number in %; do not include the unit.

Provide measured viability at 28.5 h, 10 µM value, entry: Cc1c(C(=O)NC(Cc2cccs2)c2nccs2)cnn1C (centres unmarked)
97.1

====

assay info: in vitro
assay context: human, hela cells, % viability
reported metric: viability at 28.5 h, 10 µM (%)
Enter your answer as a number in %; do not include the unit.

Below are worked cases with known answers.
compound: CCc1cc2c(=O)c(-c3cnn(-c4ccccc4)c3)c(C(F)(F)F)oc2c(CN(C)C)c1O
quantity unit: %
viability at 28.5 h, 10 µM: 90.9
--
compound: O=C(CSc1ccccn1)Nc1cccc(Cl)c1Cl
quantity unit: %
viability at 28.5 h, 10 µM: 91.8
--
compound: CCCCc1cc(=O)[nH]c(NCc2ccc(C(F)(F)F)cc2)n1
quantity unit: %
viability at 28.5 h, 10 µM: 92.5
--
compound: O=C(O)c1cc(NC(=O)c2cccc(F)c2)cc(NC(=O)c2cccc(F)c2)c1
quantity unit: %
viability at 28.5 h, 10 µM: 90.6
--
compound: CS(=O)(=O)Nc1nccnc1N1CCN(c2ccccc2)CC1
quantity unit: %
viability at 28.5 h, 10 µM: 91.8

Provide measured viability at 28.5 h, 10 µM value, entry: "Cn1ncc2c1CCCN(C(=O)COc1ccc(F)cc1F)C2"
90.6

Provide measured viability at 28.5 h, 10 µM value, entry: "O=C(NCc1ccccn1)c1cc2cc(Cl)ccc2[nH]1"
88.2

Provide measured viability at 28.5 h, 10 µM value, entry: "N#CCCN(C(=O)NCc1cccc2ccccc12)C1CCCCC1"
89

Provide measured viability at 28.5 h, 10 µM value, entry: "CC(=O)N1CCc2cc(NC(=O)Cn3ccnc3C(C)C)ccc21"
90.1

Provide measured viability at 28.5 h, 10 µM value, entry: "CCN(CC(=O)NCc1ccc(F)cc1)S(=O)(=O)c1ccc(Cl)s1"
88.2

Provide measured viability at 28.5 h, 10 µM value, entry: "Oc1cc(Cl)c(-c2ccccc2)nn1"
88.4

Provide measured viability at 28.5 h, 10 µM value, entry: "Cc1nc2ccc(NC(=O)Nc3ccnc4cccnc34)cc2o1"
90

Provide measured viability at 28.5 h, 10 µM value, entry: "Cc1cc(-c2cc3nc(C)c(C)c(O)n3n2)c(C)o1"
90.4

Provide measured viability at 28.5 h, 10 µM value, entry: O=C1CC(NCc2ccccc2)C(=O)N1c1ccc(N2C(=O)CC(NCc3ccccc3)C2=O)cc1 (stereo not shown)
88.6

Provide measured viability at 28.5 h, 10 µM value, entry: "Cc1cc(CNS(=O)(=O)c2c(C)noc2C)no1"
91.4

Provide measured viability at 28.5 h, 10 µM value, entry: "COc1cc(/C=C/c2[nH]c(=O)[nH]c(=O)c2[N+](=O)[O-])cc(Br)c1OCC(=O)O"
91.5

Provide measured viability at 28.5 h, 10 µM value, entry: "O=S(=O)(NCCc1cccc(C(F)(F)F)c1)c1cccs1"
91.1

Provide measured viability at 28.5 h, 10 µM value, entry: "Cc1ccc2oc(-c3ccc(C)c(NC(=S)NC(=O)c4ccc([N+](=O)[O-])cc4)c3)nc2c1"
90.4

Provide measured viability at 28.5 h, 10 µM value, entry: "Cn1c(=O)n(C)c2cc(S(=O)(=O)Nc3ccc(Cl)c(C(=O)O)c3)ccc21"
90.8

Taken from paper PMC12040169.
